Just for reference, the METLIN SMRT retention time set (Domingo-Almenara et al. 2019) is where these values come from.

# testName: gradient 5% acetonitrile 3 min, to 50% in 2 min, to 85% in 15 min, held 3 min, 100 µL/min
# appliedConditions: column: Zorbax Extend-C18 2.1 x 50 mm; eluents: water / acetonitrile, 0.1% formic acid
recordedEndpoint: RP-LC retention time (s)

{"columns": ["molecule", "RP-LC retention time, s"],
 "data": [
  ["CCN1C(=O)CN(C(=O)CC(C)C)CC12CCOCC2", 634],
  ["COc1cc2oc(=O)cc(C)c2cc1[N+](=O)[O-]", 764],
  ["CC1CC(C)CN(CCCNC(=O)c2ccc3c(c2)NC(=O)CS3)C1 (stereo not drawn)", 605]
]}

###

# testName: gradient 5% acetonitrile 3 min, to 50% in 2 min, to 85% in 15 min, held 3 min, 100 µL/min
# appliedConditions: column: Zorbax Extend-C18 2.1 x 50 mm; eluents: water / acetonitrile, 0.1% formic acid
recordedEndpoint: RP-LC retention time (s)

{"columns": ["compound", "measured"],
 "data": [
  ["Cc1cc(C)cc(NC(=O)C2CCN(C(=O)c3ncn4c3COC(c3ccccc3)C4)CC2)c1 (stereo not drawn)", 856],
  ["O=C(Cn1cnc2c(sc3nc(-c4ccccc4)ccc32)c1=O)Nc1ccc2c(c1)OCO2", 974],
  ["Cn1cc(C=O)c2nccnc21", 631]
]}

###

# testName: gradient 5% acetonitrile 3 min, to 50% in 2 min, to 85% in 15 min, held 3 min, 100 µL/min
# appliedConditions: column: Zorbax Extend-C18 2.1 x 50 mm; eluents: water / acetonitrile, 0.1% formic acid
recordedEndpoint: RP-LC retention time (s)

{"columns": ["compound", "measured"],
 "data": [
  ["CCC(C(=O)NCc1ccccc1)n1cnc2nc3c(cc2c1=O)CCCC3 (centres undefined)", 774],
  ["O=C(NCc1ccc2c(c1)OCO2)c1ccc2c(c1)NC(=O)C1CCCCN21 (centres undefined)", 765],
  ["Cc1ccsc1C(=O)N1C[C@@H]2CCCN3CCC[C@@H]([C@H]23)[C@H]1CCCC(=O)NCC1CC1", 612],
  ["O=C(c1csc(N2CCCC2)n1)N1CCOCC1", 628]
]}

###

# testName: gradient 5% acetonitrile 3 min, to 50% in 2 min, to 85% in 15 min, held 3 min, 100 µL/min
# appliedConditions: column: Zorbax Extend-C18 2.1 x 50 mm; eluents: water / acetonitrile, 0.1% formic acid
recordedEndpoint: RP-LC retention time (s)

Look over these answered cases.
{"columns": ["molecule", "measured"],
 "data": [
  ["O=C(Cn1nc2c3ccccc3ncn2c1=O)Nc1cccc(C(F)(F)F)c1", 733],
  ["O=C(CCCc1nnc2c(=O)n(-c3cccc(F)c3)ccn12)NCCc1c[nH]c2ccccc12", 707],
  ["CCOC(=O)C1CCc2sc(NC(=O)CCc3csc4nc(C5CC5)cn34)nc21 (configuration not stated)", 599],
  ["CC(=O)N1CCC(C(=O)Nc2cc(-c3nnc(C)o3)sc2C)CC1", 648]
]}

[I] Cc1ccc(-c2nc3ncccn3c2Nc2ccc(Cl)cc2)cc1
[II] O=S(=O)(c1cc(-c2nnc(-c3ccc(F)cc3)o2)ccc1Cl)N1CCCCC1
Select the item whose RP-LC retention time value is smaller, choosing between I and II . Kindly give the label for the entry you pick.
I
(I: 827 s, II: 1190 s)

[P] Cc1ccc(NC(=O)CCC2CCN(c3cc(NC4CC4)ncn3)CC2)cc1
[Q] COC(=O)c1c(C)c(C(=O)C(C)N(Cc2ccc(F)cc2)C(=O)C2CCC2)c(C)n1C (configuration not stated)
API: POST /compare with P and Q ; response names the item with higher RP-LC retention time. Provide the label of your selected option as the answer.
Q
(Q: 1040 s, P: 692 s)

[1] CCOC(=O)c1noc2ncnc(Nc3ccc(C)c(C)c3)c12
[2] CCc1nccn1Cc1nc(-c2ccc(F)cc2)no1
So which one has the bigger RP-LC retention time here, 1 or 2 ? Answer by quoting the chosen item's label.
1

[I] O=C(Nc1ccc(N2CCOCC2)cc1)c1cn2c(n1)COCC2
[II] COc1ccc(NC(=O)C2CCN(S(=O)(=O)c3ccc4c(c3)sc(=O)n4C(C)C)CC2)cc1
Please compare: I and II . Report which one has the smaller RP-LC retention time value. Answer by stating the label of the chosen item.
I
(I: 600 s, II: 922 s)

###

# testName: gradient 5% acetonitrile 3 min, to 50% in 2 min, to 85% in 15 min, held 3 min, 100 µL/min
# appliedConditions: column: Zorbax Extend-C18 2.1 x 50 mm; eluents: water / acetonitrile, 0.1% formic acid
recordedEndpoint: RP-LC retention time (s)

[I] O=S(=O)(Nc1ccc2c(c1)OCCO2)c1ccc2nncn2c1
[II] CCOC(=O)C1CCCN(c2ncnc3c2cnn3-c2ccccc2)C1 (configuration not stated)
Lab note: check whether I or II has the lower measured RP-LC retention time. Indicate your choice by writing its label.
I

[I] O=C([C@@H]1C[C@H](F)CN1S(=O)(=O)c1ccc(F)c(Cl)c1)N1CCc2ccccc2C1
[II] O=C(NCC1CC(=O)N(Cc2ccc(F)cc2)C1)Nc1cccs1 (configuration not stated)
Between I and II , whose measured RP-LC retention time reads higher? Reply briefly: the label of your chosen item.
I
(I: 997 s, II: 668 s)

###

# testName: gradient 5% acetonitrile 3 min, to 50% in 2 min, to 85% in 15 min, held 3 min, 100 µL/min
# appliedConditions: column: Zorbax Extend-C18 2.1 x 50 mm; eluents: water / acetonitrile, 0.1% formic acid
recordedEndpoint: RP-LC retention time (s)

{"columns": ["compound", "measured"],
 "data": [
  ["CCCn1ccc2sc(C)c(C(=O)NCc3cc(OC)ccc3OC)c2c1=O", 889],
  ["COc1ccc(N2CC(c3nc(-c4cc(OC)c(OC)c(OC)c4)no3)CC2=O)cc1Cl (stereo unspecified)", 905],
  ["O=C(NCCc1csc(-c2cccc(F)c2)n1)c1cccs1", 905],
  ["O=C(C1CCN(S(=O)(=O)c2ccc3[nH]c4c(c3c2)CCCCC4)CC1)N1CCCC1", 906],
  ["O=C(c1ccco1)N1CCN(c2ccc3cc(S(=O)(=O)N4CCCC4)ccc3n2)CC1", 704],
  ["Cc1cccc(N2CCN(c3cc(C(=O)O)c4cc(NS(C)(=O)=O)ccc4n3)CC2)c1C", 715]
]}

###

# testName: gradient 5% acetonitrile 3 min, to 50% in 2 min, to 85% in 15 min, held 3 min, 100 µL/min
# appliedConditions: column: Zorbax Extend-C18 2.1 x 50 mm; eluents: water / acetonitrile, 0.1% formic acid
recordedEndpoint: RP-LC retention time (s)

{"columns": ["compound", "RP-LC retention time (s)"],
 "data": [
  ["COc1ccc(NC(=O)c2cc(C)n3nccc3n2)c(C)c1", 886],
  ["CC1CCC(NC(=O)C2CCN(C(=O)c3cc(-c4ccncc4)n[nH]3)CC2)CC1 (stereo not given)", 624],
  ["Cc1nc(-c2nc3c(s2)CN(C(=O)COc2ccc(Cl)cc2)CC3)cs1", 922],
  ["COc1ccc(CC(=O)NCC2(c3cccs3)CC2)cc1OC", 736],
  ["CCC(CC)NC(=O)C1CCN(c2nc3ccc(-c4cncnc4)nc3s2)CC1", 810]
]}

[I] Cc1ccc(C)c(CNC(=O)c2nc3cccnc3n(CC(C)C)c2=O)c1
[II] COc1cccc(-n2cc(C(=O)O)nn2)c1
Kindly identify the item with the lower RP-LC retention time figure among these two: I and II Give the chosen item's label as your response.
II

###

# testName: gradient 5% acetonitrile 3 min, to 50% in 2 min, to 85% in 15 min, held 3 min, 100 µL/min
# appliedConditions: column: Zorbax Extend-C18 2.1 x 50 mm; eluents: water / acetonitrile, 0.1% formic acid
recordedEndpoint: RP-LC retention time (s)

{"columns": ["sampleSmiles", "RP-LC retention time / s"],
 "data": [
  ["O=C(NCC1CCOCC1)Nc1cccc(Br)c1", 749],
  ["Cc1cc(C(=O)NCc2ccc(F)cc2)n(-c2ccccc2)n1", 813],
  ["O=C(NCCN1CCN(C(=O)c2cccs2)CC1)c1ccc2nsnc2c1", 550],
  ["CN1C(=O)CCc2cc(NC(=O)c3ccoc3)ccc21", 653],
  ["CCC(=O)Nc1cccc(-c2nnc3n2CCC3)c1", 588]
]}

###

# testName: gradient 5% acetonitrile 3 min, to 50% in 2 min, to 85% in 15 min, held 3 min, 100 µL/min
# appliedConditions: column: Zorbax Extend-C18 2.1 x 50 mm; eluents: water / acetonitrile, 0.1% formic acid
recordedEndpoint: RP-LC retention time (s)

{"columns": ["compound", "RP-LC retention time, s"],
 "data": [
  ["CN(C)CCCNC(=O)C1CCN(c2nc3ccc(-c4ccsc4)nc3s2)CC1", 644],
  ["C[C@H](Cc1ccc(O)c(O)c1)[C@@H](C)Cc1ccc(O)c(O)c1", 878],
  ["Cc1ccccc1CNC(=O)C1(C)CCCN(C(=O)Nc2ccccc2Br)C1 (configuration not stated)", 1020],
  ["O=C1COc2ccc(S(=O)(=O)N3CCC(C(=O)Nc4ccc(C(F)(F)F)cc4)CC3)cc2N1", 803],
  ["CC1=C(c2ccc(F)cc2)S(=O)(=O)N=C1N1CCCN(C(=O)C2CCCC2)CC1", 828]
]}

[1] Cn1cccc1C(=O)NC(C)(C)c1nc2c(c(C(N)=O)n1)OCCO2
[2] O=C1COc2ccccc2N1Cc1nc(-c2ccc(F)cc2)no1
// select label with min value of measured RP-LC retention time from [ 1 , 2 ] When you have decided, please share the label of that item.
1
